system: UT5600 cells (NTR−) lysogens; test: Replica-plate screening of mutant NTR-expressing lysogens on increasing CB1954 (growth score); format: cell-based, E. coli; settings: growth of lysogens on agar with kanamycin, IPTG and 0-400 μM CB1954; wild type = 4, higher = more sensitive
result-type: Score

{"columns": ["molecule", "result-type", "test-value"],
 "data": [
  ["F124C (protein) MDIISVALKRHSTKAFDASKKLTPEQAEQIKTLLQYSPSSTNSQPWHFIVASTEEGKARVAKSAAGNYVFNERKMLDASHVVVFCAKTAMDDVWLKLVVDQEDADGRFATPEAKAANDKGRKFCADMHRKDLHDDAEWMAKQVYLNVGNFLLGVAALGLDAVPIEGFDAAILDAEFGLKEKGYTSLVVVPVGHHSVEDFNATLPKSRLPQNITLTEV", "Score", "7-9"],
  ["F124S (protein) MDIISVALKRHSTKAFDASKKLTPEQAEQIKTLLQYSPSSTNSQPWHFIVASTEEGKARVAKSAAGNYVFNERKMLDASHVVVFCAKTAMDDVWLKLVVDQEDADGRFATPEAKAANDKGRKFSADMHRKDLHDDAEWMAKQVYLNVGNFLLGVAALGLDAVPIEGFDAAILDAEFGLKEKGYTSLVVVPVGHHSVEDFNATLPKSRLPQNITLTEV", "Score", "7-9"],
  ["Y68G F124W (protein) MDIISVALKRHSTKAFDASKKLTPEQAEQIKTLLQYSPSSTNSQPWHFIVASTEEGKARVAKSAAGNGVFNERKMLDASHVVVFCAKTAMDDVWLKLVVDQEDADGRFATPEAKAANDKGRKFWADMHRKDLHDDAEWMAKQVYLNVGNFLLGVAALGLDAVPIEGFDAAILDAEFGLKEKGYTSLVVVPVGHHSVEDFNATLPKSRLPQNITLTEV", "Score", "5-7"],
  ["G120S (protein) MDIISVALKRHSTKAFDASKKLTPEQAEQIKTLLQYSPSSTNSQPWHFIVASTEEGKARVAKSAAGNYVFNERKMLDASHVVVFCAKTAMDDVWLKLVVDQEDADGRFATPEAKAANDKSRKFFADMHRKDLHDDAEWMAKQVYLNVGNFLLGVAALGLDAVPIEGFDAAILDAEFGLKEKGYTSLVVVPVGHHSVEDFNATLPKSRLPQNITLTEV", "Score", "4-6"],
  ["Y68S (protein) MDIISVALKRHSTKAFDASKKLTPEQAEQIKTLLQYSPSSTNSQPWHFIVASTEEGKARVAKSAAGNSVFNERKMLDASHVVVFCAKTAMDDVWLKLVVDQEDADGRFATPEAKAANDKGRKFFADMHRKDLHDDAEWMAKQVYLNVGNFLLGVAALGLDAVPIEGFDAAILDAEFGLKEKGYTSLVVVPVGHHSVEDFNATLPKSRLPQNITLTEV", "Score", "5-7"]
]}
